Source: BindingDB's records for PubMed 2156866

# Study Target: cGMP-dependent protein kinase 1 (Homo sapiens)
# Sequence (Q13976 whole entry): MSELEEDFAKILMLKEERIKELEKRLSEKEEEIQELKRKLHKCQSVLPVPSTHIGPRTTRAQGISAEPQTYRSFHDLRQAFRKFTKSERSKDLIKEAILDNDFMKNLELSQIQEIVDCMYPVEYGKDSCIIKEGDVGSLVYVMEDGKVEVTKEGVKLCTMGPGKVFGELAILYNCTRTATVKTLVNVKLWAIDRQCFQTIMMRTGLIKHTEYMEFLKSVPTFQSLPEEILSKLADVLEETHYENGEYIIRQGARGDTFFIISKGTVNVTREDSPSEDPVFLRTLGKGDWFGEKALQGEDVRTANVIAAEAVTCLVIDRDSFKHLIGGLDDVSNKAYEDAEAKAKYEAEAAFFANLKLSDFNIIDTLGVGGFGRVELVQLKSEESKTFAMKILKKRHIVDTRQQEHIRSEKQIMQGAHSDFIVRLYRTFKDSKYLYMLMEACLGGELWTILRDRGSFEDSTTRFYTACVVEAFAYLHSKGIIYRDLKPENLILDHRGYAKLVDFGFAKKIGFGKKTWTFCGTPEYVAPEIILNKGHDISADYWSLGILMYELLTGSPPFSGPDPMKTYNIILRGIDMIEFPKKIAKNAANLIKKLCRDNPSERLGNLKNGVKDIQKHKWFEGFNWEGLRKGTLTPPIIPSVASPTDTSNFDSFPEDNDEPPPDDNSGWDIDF
# Protocol Notes: Enzyme Assay
# Conditions Used: 30 °C
Recorded Endpoint: Ki (nM)
State just the number; it will be interpreted in nM.

Can you share its Ki? I mean this compound: O=S(=O)(NCCNC/C=C/c1ccc(Br)cc1)c1cccc2cnccc12
480

====

# Study Target: Casein kinase II subunit alpha (Homo sapiens)
# Sequence (P68400 whole entry): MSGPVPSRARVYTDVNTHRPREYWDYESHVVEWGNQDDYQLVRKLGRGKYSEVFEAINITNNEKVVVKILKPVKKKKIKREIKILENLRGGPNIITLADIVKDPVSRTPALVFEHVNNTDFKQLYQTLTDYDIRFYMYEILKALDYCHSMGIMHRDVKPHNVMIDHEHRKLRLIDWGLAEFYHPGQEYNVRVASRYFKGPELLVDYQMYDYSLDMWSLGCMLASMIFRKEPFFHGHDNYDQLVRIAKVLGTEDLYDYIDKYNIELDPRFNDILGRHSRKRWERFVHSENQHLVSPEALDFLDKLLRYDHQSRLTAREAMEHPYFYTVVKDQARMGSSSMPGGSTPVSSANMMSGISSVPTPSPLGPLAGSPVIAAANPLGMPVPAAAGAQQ
# Protocol Notes: Enzyme Assay
# Conditions Used: 30 °C
Recorded Endpoint: Ki (µM)
# number only, unit µM dropped from output

# input molecule: O=S(=O)(NCCNC/C=C/c1ccccc1)c1cccc2cnccc12 ; wanted: its Ki
104

====

# Study Target: cAMP-dependent protein kinase catalytic subunit alpha (Homo sapiens)
# Protocol Notes: Enzyme Assay
# Conditions Used: 30 °C
Recorded Endpoint: Ki (nM)
The response must be a number in nM with no trailing unit.

What is its Ki for cAMP-dependent protein kinase catalytic subunit alpha (Homo sapiens)? Entry: O=S(=O)(NCCNC/C=C/c1ccccc1)c1cccc2cnccc12
360

====

# Study Target: Protein kinase C alpha type (Homo sapiens, UniProt P17252)
Recorded Endpoint: Ki
Answer by giving the amount and then stating its unit.

Please look up its Ki: O=S(=O)(NCCNC/C=C/c1ccccc1)c1cccc2cnccc12
75.7 µM
